- Experimental target: c-kit (Homo sapiens)
- Construct: MO7e (human megakaryocytic leukemia cell line) which had been arrested for 20 hr; endogenous in cells; host or cells: MO7e human megakaryocytic leukemia cell line
- Sequence (P10721 26-976): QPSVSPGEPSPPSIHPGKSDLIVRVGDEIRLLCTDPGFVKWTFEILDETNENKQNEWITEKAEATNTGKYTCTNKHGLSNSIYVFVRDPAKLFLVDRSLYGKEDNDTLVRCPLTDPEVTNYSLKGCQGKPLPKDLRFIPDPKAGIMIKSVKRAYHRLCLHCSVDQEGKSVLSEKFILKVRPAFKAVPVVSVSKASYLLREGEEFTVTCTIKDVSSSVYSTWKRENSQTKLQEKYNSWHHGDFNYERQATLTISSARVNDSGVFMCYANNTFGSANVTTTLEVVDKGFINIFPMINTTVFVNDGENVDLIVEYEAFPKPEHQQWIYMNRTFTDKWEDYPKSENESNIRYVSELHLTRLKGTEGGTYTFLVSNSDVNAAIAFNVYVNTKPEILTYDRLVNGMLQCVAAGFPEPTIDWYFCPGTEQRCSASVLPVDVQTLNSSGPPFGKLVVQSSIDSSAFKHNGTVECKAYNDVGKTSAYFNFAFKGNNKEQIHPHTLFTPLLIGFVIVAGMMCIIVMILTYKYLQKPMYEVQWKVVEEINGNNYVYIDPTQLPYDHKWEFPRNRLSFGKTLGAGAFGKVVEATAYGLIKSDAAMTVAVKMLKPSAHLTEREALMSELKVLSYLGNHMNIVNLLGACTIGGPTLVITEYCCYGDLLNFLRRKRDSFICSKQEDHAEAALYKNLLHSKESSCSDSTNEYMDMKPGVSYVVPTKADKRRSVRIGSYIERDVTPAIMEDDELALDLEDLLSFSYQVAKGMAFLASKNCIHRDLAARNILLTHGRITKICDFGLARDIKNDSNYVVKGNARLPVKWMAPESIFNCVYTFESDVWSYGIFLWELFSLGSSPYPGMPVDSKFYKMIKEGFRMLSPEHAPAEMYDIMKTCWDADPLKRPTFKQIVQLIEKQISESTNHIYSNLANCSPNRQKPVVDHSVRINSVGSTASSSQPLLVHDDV
- Test method notes: Inhibitory activity against c-kit autophosphorylation (MO7e cells, h-SCF)
- Format: cell-based
- Condition description: MO7e cells, h-SCF 50 ng/ml; read-out: c-kit IC50
Recorded endpoint: IC50 (nM)

Compound: COc1cc2nccc(Oc3cc(C)c(NC(=O)OCCCSc4ccc(Cl)cc4C)cc3C)c2cc1OC
IC50 / nM: 123

P = COc1cc2nccc(Oc3ccc(NC(=O)OCCSc4cc(C)ccc4C)c(C)c3C)c2cc1OC
Q = COc1cccc(C(C)OC(=O)Nc2ccc(Oc3ncnc4cc(OC)c(OC)cc34)cc2Cl)c1 (centres unmarked)
R = CCCCCCOC(=O)Nc1ccc(Oc2ccnc3cc(OC)c(OC)cc23)cc1
S = COc1cc2ncnc(Oc3ccc(NC(=O)OCCCOc4ccc(Cl)cc4)c(Cl)c3)c2cc1OC
T = COc1cc2nccc(Oc3ccc(NC(=O)OCCOc4cccc(F)c4)cc3)c2cc1OC
Exercise: Arrange the 5 entries by IC50 so the values rise. Returns: the labels arranged in the requested order.
Key: R, T, P, S, Q
(R: 15 nM, T: 55 nM, P: 145 nM, S: 221 nM, Q: 774 nM)

a = COc1cc2ncnc(Oc3ccc(NC(=O)OC(C)c4cccc(Cl)c4)c(Cl)c3)c2cc1OC (centres unmarked)
b = COc1cc2nccc(Oc3ccc(NC(=O)OCc4cccc(C)c4)cc3)c2cc1OC
Exercise: Which value of IC50 is smaller, the one for a or the one for b ? # reply format: chosen label
Key: b
(b: 185 nM, a: 616 nM)

1 = COc1ccccc1COC(=O)Nc1cc(C)c(Oc2ccnc3cc(OC)c(OC)cc23)cc1C
2 = COc1cc2nccc(Oc3ccc(NC(=O)OCCCCCCN(C)C)c(C)c3C)c2cc1OC
Exercise: Name the one with the greater IC50 value, either 1 or 2 as given. # reply format: chosen label
Key: 2
(2: 329 nM, 1: 183 nM)

Every entry's value here was drawn from patent US7135466B2.
